- System: LoVo cells
- ASSAY EXPLANATION: Cytotoxicity on LoVo tumor cells in the presence and absence of β-glucuronidase (MTT)
- Assay type: cell-based
- CONDITION SUMMARY: read-out: IC50 with β-gluc.
MEASURE: IC50 (µM)
Field: numeric (µM). Do not append units.

Qu. Which measured IC50 value corresponds to CN(C(=O)Oc1ccc(N(CCCl)CCCl)cc1)c1cc([N+](=O)[O-])ccc1O[C@@H]1O[C@H](C(=O)O)[C@@H](O)[C@H](O)[C@H]1O [F 373] ?
Ans. 6.3

====

- System: LoVo cells
- ASSAY EXPLANATION: Cytotoxicity on LoVo tumor cells in the presence and absence of β-glucuronidase (MTT)
- Format: cell-based
- CONDITION SUMMARY: Homo sapiens, LoVo, read-out: IC50 of the toxic compound tested alone
MEASURE: IC50 (µM)
Field: numeric (µM). Do not append units.

Qu. Which measured IC50 value corresponds to C=C[C@H]1C[N@@]2CC[C@H]1C[C@H]2[C@H](O)c1ccnc2ccc(OC)cc12 [quinine, reference compound] ?
Ans. 103
